Values from PubChem BioAssay (NCI)

Test system: M14 melanoma
ASSAY INFO: NCI tumour cell line growth inhibition, 48 h
MEASURE: log10 TGI (log10 of the value in µM)
The figures below represent log10 of TGI, where TGI is stated in µM.

Consider the following illustrative entries.
COMPOUND: CCOC(=O)C(=Cc1ccc(Br)cc1)C(=O)OCC
RESULT VALUE: 0.57

COMPOUND: CC(=O)OC1CC(OC2C(O)CC(OC3C(O)CC(OC4CCC5(C)C(CCC6C5CC(O)C5(C)C(C7=CC(=O)OC7)CCC65O)C4)OC3C)OC2C)OC(C)C1O (centres undefined) (tested in a mixture with another compound)
RESULT VALUE: -0.64

COMPOUND: CC(C)(C)SC1=CCC[C@@H](P(=O)(c2ccccc2)c2ccccc2)[C@@H]2CCC[C@@H]12
RESULT VALUE: 1.47

COMPOUND: O=C1Nc2ccccc2SC1C1SC(=S)N(Cc2ccccc2)C1=O (centres undefined)
RESULT VALUE: 1.30

Now consider a different compound.
q: If you can, please state the reported log10 TGI value of C=CCC1(O)c2cccc(O)c2C(=O)c2c(O)cccc21 .
a: 1.77

* * *

Below, each entry is listed with its recorded TGI.
Test system: SNB-19 CNS
ASSAY INFO: NCI tumour cell line growth inhibition, 48 h

Consider the following illustrative entries.
COMPOUND: CC(C)(C)C1CCC2c3c([nH]c4ccccc34)C3C(=O)N(c4ccc(Br)cc4)C(=O)C3C2C1 (stereo unspecified)
MEASURED TARGET: SNB-19 CNS
TGI: 40 µM

COMPOUND: COCCOC(C)C(/C=N/NC(N)=S)=N/NC(N)=S (stereo unspecified)
MEASURED TARGET: SNB-19 CNS
TGI: > 100 µM

COMPOUND: COc1cc2cc(C(=O)N3CC(COS(C)(=O)=O)c4c3cc([N+](=O)[O-])c3ccccc43)[nH]c2c(OC)c1OC (stereo unspecified)
MEASURED TARGET: SNB-19 CNS
TGI: > 31.6 µM

q: If you can, please state the reported TGI value of C=C(C)C1CC[C@]2(C(=O)O)CCC3(C)[C@H](CCC4[C@@]5(C)CC[C@H](OC6OC(CO)C(O)C6OC6OC(C)C(O)C(O)C6O)[C@@](C)(CO)C5CC[C@]43C)C12 (stereo partly specified) .
a: > 100 µM

q: If you can, please state the reported TGI value of CC[C@H](CCCCC1CC[C@@H]2CC(=O)C[C@H]12)OC (stereo partly specified) .
a: > 100 µM

q: If you can, please state the reported TGI value of Nc1ncnc2c1ncn2CC(OCP(=O)(O)O)Oc1ccccc1 (stereo unspecified) .
a: > 100 µM

q: If you can, please state the reported TGI value of COc1ccc(OC)c(C2CCc3cnc4nc(N)nc(N)c4c3C2)c1 (stereo unspecified) .
a: > 100 µM

q: If you can, please state the reported TGI value of Cc1c(-c2ccccc2)n(C)c2cn[nH]c(=O)c12 .
a: > 100 µM

q: If you can, please state the reported TGI value of CC(=O)Oc1ccc(-c2cc3ccccc3oc2=O)cc1OC(C)=O .
a: > 100 µM

* * *

Test system: UACC-62 melanoma
ASSAY INFO: NCI tumour cell line growth inhibition, 48 h; in the data active means GI50 below about 0.43 µM; inactive means the rest
Select the correct class. Options are t (active), f (inactive) and nothing else.

Take a look at these entries with their results.
COMPOUND: N#Cc1cccc(Nc2nccc(-c3cnn4ncccc34)n2)c1
DISCRETE LABEL: t
--
COMPOUND: CCOC(=O)c1c(C)c2c(n1C)CSc1cc(S(=O)(=O)c3ccccc3)c(=O)[nH]c1-2
DISCRETE LABEL: f
--
COMPOUND: Cc1cc(N2CCN(C)CC2)nc(NC2CCCC(Nc3ccnc4cc(Cl)ccc34)C2)n1 (stereo not given)
DISCRETE LABEL: f
--
COMPOUND: COc1ccc2cc(C(=O)/C=C/c3ccc(OC)c(OC)c3)ccc2c1
DISCRETE LABEL: f

Turning now to a further record.
q: Kindly provide the recorded test outcome for the following compound: COc1ccc2[nH]cc(/C=C3\C(=O)Nc4ccccc43)c2c1
a: f
